Catalogue of IC50 values
test system: P. aeruginosa PA14; assay: IC50 of compounds in conjunction with colistin relative to P. aeruginosa (growth, absorbance at 600 nm); format: cell-based; conditions: Pseudomonas aeruginosa; P. aeruginosa PA14 in LB; colistin held constant at sublethal concentration (0.25 to 0.375 pg/mL); 3-fold dilution starting with a 250 concentration; 17 h aerobic growth at 37° C.; absorbance at 600 nm; read-out: IC50
Write the value in µM as a bare number.

Under P. aeruginosa PA14: report IC50 of CC(=O)c1ccccc1OCCCCCC(=O)Nc1ccnc(C(F)(F)F)c1 . 57

Give reported IC50 for CC(C)(C)c1cccc(OCCCCCC(=O)Nc2ccnc(C(F)(F)F)c2)c1 (P. aeruginosa PA14) 0.8

State measured IC50 of the compound O=C(CCCCCOc1cccc2ccccc12)Nc1ccnc(C(F)(F)F)c1 with P. aeruginosa PA14. 15

Param request: IC50 | system P. aeruginosa PA14 | item O=C(CCCCCN1CCN(c2ccccn2)CC1)Nc1ccnc(C(F)(F)F)c1 95

With P. aeruginosa PA14 as the test system, provide measured IC50 for this compound: CC(C)(C)c1ccc(OCCCCCC(=O)Nc2ccnc(C(F)(F)F)c2)cc1 2.6
